B1: CD207 (parent)
chain: MTVEKEAPDAHFTVDKQNISLWPR

Variants of: B1
Assay: protein stability index of a GFP-peptide fusion (GPS, HEK-293T) (PSI 1-6); higher = more stable;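 also: lentivirally expressed fusions sorted by FACS into six bins by GFP to DsRed ratio, PSI derived from sequencing read proportions per bin multiplied by bin number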
Details: c terminus: a fixed tail appended
measurement-kind: protein stability index
Answers are plain numbers.

Answered cases to consult:
1) H11L :: 3
2) W22V :: 4.32
3) L21Q :: 3.85
4) A7Q :: 3.97
5) P23F :: 2.71
6) V14N :: 3.36

Could you report protein stability index for every entry in the following list?
1. I19T
2. H11P
3. N18T

3.79
3.55
3.62

Could you report protein stability index for every entry in the following list?
1. D9H
2. I19C
3. F12G
4. I19V
5. R24Q

[2.89, 3.76, 4.03, 3.98, 3.97]
